Provenance of the data: patent US20250154202A1

Give Tube 1 (compound concentration) for every item shown.
method: Plasma stability, mouse plasma
conditions: mouse plasma, 37° C., timepoint 24 h
Bridge positions count the residues as written; N and C are the ends. Peptide text beside a SMILES is read from it.
Output spec: single numeric token, no unit.

Q: May I ask what Tube 1 (compound concentration) has been recorded for CC(=O)N[C@@H](CO)C(=O)N[C@@H](CCCNC(=N)N)C(=O)N[C@@H](CC(C)C)C(=O)N[C@@H](CCC(=O)O)C(=O)N[C@H]1CC(=O)NCCCC[C@@H](C(=O)N[C@@H](CCCNC(=N)N)C(=O)N[C@@H](CC(C)C)C(=O)N[C@H](C(=O)N[C@@H](CCC(=O)O)C(N)=O)[C@@H](C)O)NC(=O)[C@H](CCCNC(=N)N)NC(=O)[C@H](CC(C)C)NC(=O)[C@H](CCC(=O)O)NC1=O [SD15196] (Ac-SRLEDELRKRLTE-NH2; lactam 5-9) ?
Ans: 1.334

Q: May I ask what Tube 1 (compound concentration) has been recorded for CC(=O)N[C@@H](CO)C(=O)N[C@@H](CCCNC(=N)N)C(=O)N[C@@H](CC(C)C)C(=O)N[C@@H](CCC(=O)O)C(=O)N[C@H]1CCC(=O)NCCCC[C@@H](C(=O)N[C@@H](CCCNC(=N)N)C(=O)N[C@@H](CCCNC(=N)N)C(=O)N[C@@H](CC(C)C)C(=O)N[C@H](C(=O)N[C@@H](CCC(=O)O)C(N)=O)[C@@H](C)O)NC(=O)[C@H](CC(C)C)NC(=O)[C@H](CCC(=O)O)NC1=O [SD15192] (Ac-SRLEEELKRRLTE-NH2; lactam 5-8) ?
Ans: 0.637

Q: May I ask what Tube 1 (compound concentration) has been recorded for CC(=O)N[C@@H](CO)C(=O)N[C@@H](CCCNC(=N)N)C(=O)N[C@@H](CC(C)C)C(=O)N[C@@H](CCC(=O)O)C(=O)N[C@@H](CCC(=O)O)C(=O)N[C@@H](CCC(=O)O)C(=O)N[C@@H](CC(C)C)C(=O)N[C@@H](CCCNC(=N)N)C(=O)N[C@H]1CCCCNC(=O)CC[C@@H](C(N)=O)NC(=O)[C@H]([C@@H](C)O)NC(=O)[C@H](CC(C)C)NC(=O)[C@H](CCCNC(=N)N)NC1=O [SD15193] (Ac-SRLEEELRKRLTE-NH2; lactam 9-13) ?
Ans: 1.253

Q: May I ask what Tube 1 (compound concentration) has been recorded for CC(=O)N[C@@H](CO)C(=O)N[C@@H](CCCNC(=N)N)C(=O)N[C@@H](CC(C)C)C(=O)N[C@@H](CCC(=O)O)C(=O)N[C@H]1CCC(=O)NCCCC[C@@H](C(=O)N[C@@H](CCCNC(=N)N)C(=O)N[C@@H](CC(C)C)C(=O)N[C@H](C(=O)N[C@@H](CCC(=O)O)C(N)=O)[C@@H](C)O)NC(=O)[C@H](CCCNC(=N)N)NC(=O)[C@H](CC(C)C)NC(=O)[C@H](CCC(=O)O)NC1=O [SD15194] (Ac-SRLEEELRKRLTE-NH2; lactam 5-9) ?
Ans: 1.543

----------
method: Plasma stability, mouse plasma
conditions: mouse plasma, 37° C., timepoint 6 h
Bridge positions count the residues as written; N and C are the ends. Peptide text beside a SMILES is read from it.
measure: Mean (compound concentration)
Output spec: single numeric token, no unit.

Q: May I ask what Mean (compound concentration) has been recorded for CC(=O)N[C@@H](CO)C(=O)N[C@@H](CCCNC(=N)N)C(=O)N[C@@H](CC(C)C)C(=O)N[C@@H](CCC(=O)O)C(=O)N[C@H]1CCC(=O)NCCCC[C@@H](C(=O)N[C@@H](CCCNC(=N)N)C(=O)N[C@@H](CCCNC(=N)N)C(=O)N[C@@H](CC(C)C)C(=O)N[C@H](C(=O)N[C@@H](CCC(=O)O)C(N)=O)[C@@H](C)O)NC(=O)[C@H](CC(C)C)NC(=O)[C@H](CCC(=O)O)NC1=O [SD15192] (Ac-SRLEEELKRRLTE-NH2; lactam 5-8) ?
Ans: 1.77
